Data origin, for the record: patent US20240140986A1

tested on: IFNγ-induced NO production in RAW 264.7 cells; test: Nitric Oxide Suppression Assay (IFNγ-induced NO, Griess nitrite readout); format: cell-based, mouse; details: Table 2; ratio to RTA402
# cutoff 4 fold applies to Avg NO IC50 Relative to RTA402 (fold); >= gives Satisfied, < gives Not satisfied

chemical_string=CNC(=O)CC[C@]12CC[C@@H](C)[C@H](C)[C@H]1[C@H]1C(=O)C=C3[C@@]4(C)C=C(C#N)C(=O)C(C)(C)[C@@H]4CC[C@@]3(C)[C@]1(C)CC2 assigned_class="Not satisfied"
chemical_string=CCNC(=O)CC[C@]12CC[C@@H](C)[C@H](C)[C@H]1[C@H]1C(=O)C=C3[C@@]4(C)C=C(C#N)C(=O)C(C)(C)[C@@H]4CC[C@@]3(C)[C@]1(C)CC2 assigned_class="Not satisfied"
chemical_string=C[C@@H]1[C@H]2[C@H]3C(=O)C=C4[C@@]5(C)C=C(C#N)C(=O)C(C)(C)[C@@H]5CC[C@@]4(C)[C@]3(C)CC[C@@]2(CCC(=O)O)CC[C@H]1C assigned_class="Not satisfied"
chemical_string=C[C@@H]1[C@H]2[C@H]3C(=O)C=C4[C@@]5(C)C=C(C#N)C(=O)C(C)(C)[C@@H]5CC[C@@]4(C)[C@]3(C)CC[C@@]2(C(=O)NO)CC[C@H]1C assigned_class=Satisfied
chemical_string=C[C@@H]1[C@H]2[C@H]3C(=O)C=C4[C@@]5(C)C=C(C#N)C(=O)C(C)(C)[C@@H]5CC[C@@]4(C)[C@]3(C)CC[C@@]2(c2nc(CN(C)C)no2)CC[C@H]1C assigned_class="Not satisfied"

Please tell me: is the molecule `C[C@@H]1[C@H]2[C@H]3C(=O)C=C4[C@@]5(C)C=C(C#N)C(=O)C(C)(C)[C@@H]5CC[C@@]4(C)[C@]3(C)CC[C@@]2(c2nc(CCO)no2)CC[C@H]1C` at or over 4 fold in terms of Avg NO IC50 Relative to RTA402 (fold)? Not satisfied

---

Reported Avg NO IC50 Relative to RTA402 (fold) values for the following compounds.
test system: IFNγ-induced NO production in RAW 264.7 cells; experiment: Nitric Oxide Suppression Assay (IFNγ-induced NO, Griess nitrite readout); format: cell-based, mouse; details: Table 2; ratio to RTA402
Write it as a number; the unit fold goes unstated.

In the examples that follow, each entry is paired with its recorded Avg NO IC50 Relative to RTA402 (fold).
compound="C[C@@H]1[C@H]2[C@H]3C(=O)C=C4[C@@]5(C)C=C(C#N)C(=O)C(C)(C)[C@@H]5CC[C@@]4(C)[C@]3(C)CC[C@@]2(N2CCCC2=O)CC[C@H]1C [Compound T58]" target_under_test="IFNγ-induced NO production in RAW 264.7 cells" reported_property="Avg NO IC50 Relative to RTA402 (fold)" data_value=8.67
compound="COC(C)c1noc([C@]23CC[C@@H](C)[C@H](C)[C@H]2[C@H]2C(=O)C=C4[C@@]5(C)C=C(C#N)C(=O)C(C)(C)[C@@H]5CC[C@@]4(C)[C@]2(C)CC3)n1 (stereo partly drawn) [Compound T6]" target_under_test="IFNγ-induced NO production in RAW 264.7 cells" reported_property="Avg NO IC50 Relative to RTA402 (fold)" data_value=3.67

Would you kindly look at the next entry?
Observed Avg NO IC50 Relative to RTA402 (fold) on IFNγ-induced NO production in RAW 264.7 cells for CCNC(=O)CC[C@]12CC[C@@H](C)[C@H](C)[C@H]1[C@H]1C(=O)C[C@@H]3[C@@]4(C)C=C(C#N)C(=O)C(C)(C)[C@@H]4CC[C@@]3(C)[C@]1(C)CC2 [Compound T103] , please. 14.60
